system: SK-N-AS (Neuroblastoma); test: combination Emax (second highest fraction inhibited in the dose matrix, 72 h); higher = more inhibition; extreme values may be limits of the assay
Think of 0.6 as a floor: if combination Emax stands on it or above, it is T; beneath it, F.

Example entries and their recorded answers appear below.
compound	tested_target	assigned_category
CC1(C)CCC(CN2CCN(c3ccc(C(=O)NS(=O)(=O)c4ccc(NCC5CCOCC5)c([N+](=O)[O-])c4)c(Oc4cnc5[nH]ccc5c4)c3)CC2)=C(c2ccc(Cl)cc2)C1 [Venetoclax] + C[C@@H]1COCCN1C2=NC(=NC(=C2)C3(CC3)[S@](=N)(=O)C)C4=C5C=CNC5=NC=C4 [AZD6738] (first compound max 1 µM, 7x7, partner max 10 µM)	SK-N-AS (Neuroblastoma)	T
CC1(C)CCC(CN2CCN(c3ccc(C(=O)NS(=O)(=O)c4ccc(NCC5CCOCC5)c([N+](=O)[O-])c4)c(Oc4cnc5[nH]ccc5c4)c3)CC2)=C(c2ccc(Cl)cc2)C1 [Venetoclax] + CS(=O)(=O)CCNCc1ccc(-c2ccc3ncnc(Nc4ccc(OCc5cccc(F)c5)c(Cl)c4)c3c2)o1 [Lapatinib] (first compound max 1 µM, 7x7, partner max 10 µM)	SK-N-AS (Neuroblastoma)	F
NC1(C(=O)N[C@@H](CCO)c2ccc(Cl)cc2)CCN(c2ncnc3[nH]ccc23)CC1 [Capivasertib] + COc1nnc2ccc(N3CCC(c4ccc(OCCN5CCN(C)C(=O)[C@H]5C)cc4)CC3)nn12 [AZD5153] (first compound max 10 µM, 7x7, partner max 1 µM)	SK-N-AS (Neuroblastoma)	F

Now take the following compound into account.
Problem: State whether the measured combination Emax reaches 0.6, counting equality as reaching it, for C=CCn1c(=O)c2cnc(Nc3ccc(N4CCN(C)CC4)cc3)nc2n1-c1cccc(C(C)(C)O)n1 [AZD1775] + CCc1c2c(nc3ccc(O)cc13)-c1cc3c(c(=O)n1C2)COC(=O)[C@]3(O)CC [SN-38] (first compound max 1 µM, partner max 0.3 µM)
Solution: T

====

Some compounds, each annotated with its measured combination Emax.
system: ML-2 (Acute Myeloid Leukemia); assay: combination Emax (second highest fraction inhibited in the dose matrix, 72 h); higher = more inhibition; extreme values may be limits of the assay

Problem: Kindly indicate its recorded combination Emax. Item: Cc1c2c(nn1C)CSCc1cc(n(C)n1)CSc1cc(c3ccccc3c1)OCCCc1c(C(=O)O)n(C)c3c-2c(Cl)ccc13 [AZD5991] + CN(C)CCCOc1ccc(-c2ccc3ncc4c(c3c2)n(C2CCOCC2)c(=O)n4C)cn1 [AZD0156] (first compound max 1 µM, 7x7, partner max 1 µM)
Solution: 1

Problem: Kindly indicate its recorded combination Emax. Item: O=C(c1cc(Cc2n[nH]c(=O)c3ccccc23)ccc1F)N1CCN(C(=O)C2CC2)CC1 [Olaparib] + CN(CC[C@H](CSC1=CC=CC=C1)NC2=C(C=C(C=C2)S(=O)(=O)NC(=O)C3=CC=C(C=C3)N4CCC(CC4)[C@H](C5=CC=CC=C5C6=CC=C(C=C6)Cl)O)S(=O)(=O)C(F)(F)F)CCO [AZD4320] (first compound max 10 µM, 7x7, partner max 1 µM)
Solution: 0.979

Problem: Kindly indicate its recorded combination Emax. Item: CN(CCO)CC[C@H](CSc1ccccc1)Nc1ccc(S(=O)(=O)NC(=O)c2ccc(N3CCC([C@@H](O)c4ccccc4-c4ccc(Cl)cc4)CC3)cc2)cc1S(=O)(=O)C(F)(F)F [AZD4320] + CCN(CCO)CCCOc1ccc2c(Nc3cc(CC(=O)Nc4cccc(F)c4)[nH]n3)ncnc2c1 [AZD2811] (first compound max 1 µM, 7x7, partner max 1 µM)
Solution: 1

Problem: Kindly indicate its recorded combination Emax. Item: CC1(C)CCC(CN2CCN(c3ccc(C(=O)NS(=O)(=O)c4ccc(NCC5CCOCC5)c([N+](=O)[O-])c4)c(Oc4cnc5[nH]ccc5c4)c3)CC2)=C(c2ccc(Cl)cc2)C1 [Venetoclax] + Cc1cc2ncnn2cc1Nc1ncc2c(n1)n(C1CCOCC1)c(=O)n2C [AZD7648] (first compound max 1 µM, 7x7, partner max 10 µM)
Solution: 0.823

Problem: Kindly indicate its recorded combination Emax. Item: NC1(C(=O)N[C@@H](CCO)c2ccc(Cl)cc2)CCN(c2ncnc3[nH]ccc23)CC1 [Capivasertib] + Cn1cnc2c(F)c(Nc3ccc(Br)cc3Cl)c(C(=O)NOCCO)cc21 [Selumetinib] (first compound max 10 µM, 7x7, partner max 10 µM)
Solution: 0.985

Problem: Kindly indicate its recorded combination Emax. Item: COc1nnc2ccc(N3CCC(c4ccc(OCCN5CCN(C)C(=O)[C@H]5C)cc4)CC3)nn12 [AZD5153] + CCN(CCO)CCCOc1ccc2c(Nc3cc(CC(=O)Nc4cccc(F)c4)[nH]n3)ncnc2c1 [AZD2811] (first compound max 1 µM, 7x7, partner max 1 µM)
Solution: 1

====

Some compounds, each annotated with its measured combination Emax.
tested on: MOLT-4 (T-Lymphoblastic Leukemia); experiment: combination Emax (second highest fraction inhibited in the dose matrix, 72 h); higher = more inhibition; extreme values may be limits of the assay
// return just the number, without any unit appended

// worked examples, combination Emax included
compound	tested_target	readout_number
Cc1c2c(nn1C)CSCc1cc(n(C)n1)CSc1cc(c3ccccc3c1)OCCCc1c(C(=O)O)n(C)c3c-2c(Cl)ccc13 [AZD5991] + CN(C)CCCOc1ccc(-c2ccc3ncc4c(c3c2)n(C2CCOCC2)c(=O)n4C)cn1 [AZD0156] (first compound max 1 µM, 7x7, partner max 1 µM)	MOLT-4 (T-Lymphoblastic Leukemia)	0.304
CCc1c2c(nc3ccc(O)cc13)-c1cc3c(c(=O)n1C2)COC(=O)[C@]3(O)CC [SN-38] + O=C(c1cc(Cc2n[nH]c(=O)c3ccccc23)ccc1F)N1CCN(C(=O)C2CC2)CC1 [Olaparib] (first compound max 0.3 µM, 7x7, partner max 10 µM)	MOLT-4 (T-Lymphoblastic Leukemia)	1
CN(C)CCCOc1ccc(-c2ccc3ncc4c(c3c2)n(C2CCOCC2)c(=O)n4C)cn1 [AZD0156] + O=C(c1cc(Cc2n[nH]c(=O)c3ccccc23)ccc1F)N1CCN(C(=O)C2CC2)CC1 [Olaparib] (first compound max 3 µM, partner max 3 µM)	MOLT-4 (T-Lymphoblastic Leukemia)	0.636
C=CCn1c(=O)c2cnc(Nc3ccc(N4CCN(C)CC4)cc3)nc2n1-c1cccc(C(C)(C)O)n1 [AZD1775] + C1CN(CCC1(C(=O)N[C@@H](CCO)C2=CC=C(C=C2)Cl)N)C3=NC=NC4=C3C=CN4 [Capivasertib] (first compound max 3 µM, partner max 3 µM)	MOLT-4 (T-Lymphoblastic Leukemia)	0.989
O=C(c1cc(Cc2n[nH]c(=O)c3ccccc23)ccc1F)N1CCN(C(=O)C2CC2)CC1 [Olaparib] + Cc1c2c(nn1C)CSCc1cc(n(C)n1)CSc1cc(c3ccccc3c1)OCCCc1c(C(=O)O)n(C)c3c-2c(Cl)ccc13 [AZD5991] (first compound max 10 µM, 7x7, partner max 1 µM)	MOLT-4 (T-Lymphoblastic Leukemia)	0.878
Cc1c2c(nn1C)CSCc1cc(n(C)n1)CSc1cc(c3ccccc3c1)OCCCc1c(C(=O)O)n(C)c3c-2c(Cl)ccc13 [AZD5991] + CS(=O)(=O)CCNCc1ccc(-c2ccc3ncnc(Nc4ccc(OCc5cccc(F)c5)c(Cl)c4)c3c2)o1 [Lapatinib] (first compound max 1 µM, 7x7, partner max 10 µM)	MOLT-4 (T-Lymphoblastic Leukemia)	0.604

Let us examine a further case.
Problem: Look up and report measured combination Emax (MOLT-4 (T-Lymphoblastic Leukemia)) for the following compound: CN(CCO)CC[C@H](CSc1ccccc1)Nc1ccc(S(=O)(=O)NC(=O)c2ccc(N3CCC([C@@H](O)c4ccccc4-c4ccc(Cl)cc4)CC3)cc2)cc1S(=O)(=O)C(F)(F)F [AZD4320] + C=CCn1c(=O)c2cnc(Nc3ccc(N4CCN(C)CC4)cc3)nc2n1-c1cccc(C(C)(C)O)n1 [AZD1775] (first compound max 1 µM, partner max 1 µM)
Solution: 1

====

system: MV-4-11 (Acute Myeloid Leukemia); assay: Bliss excess, mean over the matrix (fraction); higher = more synergy;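 also: after 72 h of two-drug dosing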
observed_property: Bliss excess

// worked examples, Bliss excess included
molecule	Bliss excess
CS(=O)(=O)CCNCc1ccc(-c2ccc3ncnc(Nc4ccc(OCc5cccc(F)c5)c(Cl)c4)c3c2)o1 [Lapatinib] + NC1(c2ccc(-c3nc4ccn5c(=O)[nH]nc5c4cc3-c3ccccc3)cc2)CCC1 [MK-2206] (first compound max 10 µM, 7x7, partner max 10 µM)	0.0371
C[C@@H]1COCCN1c1cc(C2([S@](C)(=N)=O)CC2)nc(-c2ccnc3[nH]ccc23)n1 [AZD6738] + Nc1ccn([C@@H]2O[C@H](CO)[C@@H](O)C2(F)F)c(=O)n1 [Gemcitabine] (first compound max 10 µM, 7x7, partner max 0.3 µM)	0.0067
CC(=O)Nc1cccc(-n2c(=O)n(C3CC3)c(=O)c3c(Nc4ccc(I)cc4F)n(C)c(=O)c(C)c32)c1 [Trametinib] + Cc1nc(-c2cn3c(n2)-c2ccc(-c4cnn(C(C)(C)C(N)=O)c4)cc2OCC3)n(C(C)C)n1 [Taselisib] (first compound max 1 µM, 7x7, partner max 10 µM)	0.27

Let us examine a further case.
Problem: Look up and report measured Bliss excess (MV-4-11 (Acute Myeloid Leukemia)) for the following molecule: Cc1c2c(nn1C)CSCc1cc(n(C)n1)CSc1cc(c3ccccc3c1)OCCCc1c(C(=O)O)n(C)c3c-2c(Cl)ccc13 [AZD5991] + Cc1cc2ncnn2cc1Nc1ncc2c(n1)n(C1CCOCC1)c(=O)n2C [AZD7648] (first compound max 1 µM, 7x7, partner max 10 µM)
Solution: -0.0151
